# Assay Info: Absorption experiment of NLPL in rats (blood LC-MS/MS)
# Format: in vivo
# Measurement Context: rat, blood, po; SD rats, intragastric 50 mg/kg bw; read-out: maximum NLPL content in the blood
Residues, ends and D or L forms follow the SMILES beside them.
Recorded Metric: Cmax (ng/mL)
I only need the number, in ng/mL, no unit after it.

Data request: State, in one line, measured Cmax of CC(C)C[C@H](NC(=O)[C@@H]1CCCN1C(=O)[C@H](CC(C)C)NC(=O)[C@@H](N)CC(N)=O)C(=O)O [NLPL] (H-NLPL-OH; N-terminus and C-terminus assumed)
Data returned: 1.65
